- MEASUREMENT PROTOCOL: Half-life in NMRI mouse at 120 mg/kg, sc
- Type: ADME, organism-based
- Parameters: dose 120 mg/kg, route subcutaneous
- TEST SETTINGS: in vivo
REPORTED PROPERTY: half-life (min)
I only need the number, in min, no unit after it.

# lookup: half-life of Cc1onc(-c2c(Cl)cccc2Cl)c1C(=O)N[C@@H]1C(=O)N2[C@@H]1SC(C)(C)[C@@H]2C(=O)O [DICLOXACILLIN] 22

###

- MEASUREMENT PROTOCOL: Cmax in NMRI mouse at 60 mg/kg, sc
- Format: ADME, organism-based
- Design: dose 60 mg/kg, route subcutaneous
- TEST SETTINGS: in vivo
REPORTED PROPERTY: Cmax (µg/mL)
I only need the number, in µg/mL, no unit after it.

# lookup: Cmax of Cc1onc(-c2c(Cl)cccc2Cl)c1C(=O)N[C@@H]1C(=O)N2[C@@H]1SC(C)(C)[C@@H]2C(=O)O [DICLOXACILLIN] 90.1

###

- MEASUREMENT PROTOCOL: AUC (24 hrs) in NMRI mouse at 60 mg/kg, sc
- Format: ADME, organism-based
- Set-up: time < 24 hr, dose 60 mg/kg, route subcutaneous
- TEST SETTINGS: plasma
REPORTED PROPERTY: AUC at 24 h (ng·h/mL)
I only need the number, in ng·h/mL, no unit after it.

# lookup: AUC at 24 h of Cc1onc(-c2c(Cl)cccc2Cl)c1C(=O)N[C@@H]1C(=O)N2[C@@H]1SC(C)(C)[C@@H]2C(=O)O 70400

###

- MEASUREMENT PROTOCOL: Half-life in NMRI mouse at 60 mg/kg, sc
- Format: ADME, organism-based
- Design: dose 60 mg/kg, route subcutaneous
- TEST SETTINGS: in vivo
REPORTED PROPERTY: half-life (min)
I only need the number, in min, no unit after it.

# lookup: half-life of Cc1onc(-c2c(Cl)cccc2Cl)c1C(=O)N[C@@H]1C(=O)N2[C@@H]1SC(C)(C)[C@@H]2C(=O)O 25

###

- MEASUREMENT PROTOCOL: Half-life in NMRI mouse at 300 mg/kg, sc
- Type: ADME, organism-based
- Design: dose 300 mg/kg, route subcutaneous
- TEST SETTINGS: in vivo
REPORTED PROPERTY: half-life

# lookup: half-life of Cc1onc(-c2c(Cl)cccc2Cl)c1C(=O)N[C@@H]1C(=O)N2[C@@H]1SC(C)(C)[C@@H]2C(=O)O 30 min

###

- MEASUREMENT PROTOCOL: Half-life in NMRI mouse at 30 mg/kg, sc
- Format: ADME, organism-based
- Design: dose 30 mg/kg, route subcutaneous
- TEST SETTINGS: in vivo
REPORTED PROPERTY: half-life (min)
I only need the number, in min, no unit after it.

# lookup: half-life of Cc1onc(-c2c(Cl)cccc2Cl)c1C(=O)N[C@@H]1C(=O)N2[C@@H]1SC(C)(C)[C@@H]2C(=O)O [DICLOXACILLIN] 19
